Test system: non-senescent control IMR90 ER:RAS cells
assay_remarks: Nuclei count (Hoechst, high content imaging) senolytic assay, OIS model, non-senescent control cells
Assay type: cell-based, human
stated_conditions: Homo sapiens, IMR-90, 72 h, Control, log (dose) [M] -6, 72 h, mean n=3 (Fig 3C); read-out: Mean % Cell Survival
Listed here are compounds together with their documented viability at 1 µM.
Note: unit % is implicit; provide only the numeric part.

CO[C@H]1C[C@@H]2CC[C@@H](C)[C@@](O)(O2)C(=O)C(=O)N2CCCC[C@H]2C(=O)O[C@H]([C@H](C)C[C@@H]2CC[C@H](n3cnnn3)[C@H](OC)C2)CC(=O)[C@H](C)/C=C(\C)[C@@H](O)[C@@H](OC)C(=O)[C@H](C)C[C@H](C)/C=C/C=C/C=C/1C [Zotarolimus, zotarolimus, reference compound] = 104

Let's switch to this compound now.
In: Determine its reported viability at 1 µM: O=c1c(O)c(-c2ccc(O)cc2)oc2c(O)c(O)cc(O)c12 [Herbacetin, herbacetin]
Out: 74.4
